- Tested System: Tyrosyl-tRNA synthetase, putative (Trypanosoma cruzi (strain CL Brener)) (UniProt Q4DSP6)
- Sequence (whole entry): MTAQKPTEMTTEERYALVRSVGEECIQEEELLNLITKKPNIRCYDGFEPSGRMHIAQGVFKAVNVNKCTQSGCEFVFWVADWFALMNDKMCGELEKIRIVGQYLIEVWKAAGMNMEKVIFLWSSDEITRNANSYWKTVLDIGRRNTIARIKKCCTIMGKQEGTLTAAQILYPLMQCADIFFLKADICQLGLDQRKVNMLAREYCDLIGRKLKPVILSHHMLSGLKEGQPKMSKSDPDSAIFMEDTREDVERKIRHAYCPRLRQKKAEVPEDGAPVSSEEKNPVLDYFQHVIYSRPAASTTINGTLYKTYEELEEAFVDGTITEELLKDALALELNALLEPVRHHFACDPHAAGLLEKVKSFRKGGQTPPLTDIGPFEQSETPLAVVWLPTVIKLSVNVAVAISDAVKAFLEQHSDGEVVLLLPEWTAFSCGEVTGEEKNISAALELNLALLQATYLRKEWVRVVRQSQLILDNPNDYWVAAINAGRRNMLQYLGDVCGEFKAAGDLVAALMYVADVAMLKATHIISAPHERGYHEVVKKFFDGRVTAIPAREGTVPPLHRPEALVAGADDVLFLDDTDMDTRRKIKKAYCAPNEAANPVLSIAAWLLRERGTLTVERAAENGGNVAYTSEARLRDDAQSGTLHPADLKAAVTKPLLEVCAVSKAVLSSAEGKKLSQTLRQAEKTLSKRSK
- Assay Method Text: Trypanosoma cruzi tyrosyl tRNA synthetase (TcYRS) SOP
- Assay type: functional
- Parameters: scale not given: direction of the effect not stated beside the values
- Conditions Used: 30 µM
Percent Effect by entry:
Please respond with the number in % and leave the unit unwritten.

# Compound, Tested System, Quantity Name, Endpoint Unit, Reported Value
measured = [
    ("Cc1nc2ccccc2nc1CN1CCCC1c1c(C)nn(C)c1C (stereo not drawn)", "Tyrosyl-tRNA synthetase, putative (Trypanosoma cruzi (strain CL Brener)) (UniProt Q4DSP6)", "Percent Effect", "%", 17.7),
]

Qu. Look up Percent Effect with Tyrosyl-tRNA synthetase, putative (Trypanosoma cruzi (strain CL Brener)) (UniProt Q4DSP6) for this compound: O=S(=O)(C1CC1)N1CC[C@]2(C[C@@H](Oc3ccccn3)CO2)C1
Ans. 8.97
